System: K4 kissing-loop RNA reporter
Assay: apparent KD of K4 kissing-loop reporter; higher = weaker reporter binding
Conditions: Eterna round: R107; input ligand: FMN 200 uM
Rule: label 1 for apparent KD of K4 kissing-loop reporter not less than 200 nM, label 0 for anything less.

CGCAAGCAGCCAGUGAUGUUGGCCGCCUUGCGAGGACCGGUACGGCCGCCACUCGAAGGCGGCUAGUAGUAGUCUGUCUAACGGA [KL-XTryp-A16]: label 0
CCUAUCUGUUACGAUACCAGUCAAAGAUAUUUUAUCAAUGCCCUCACCGAGUGAUGUUCGGACCCUUGGCAGCGUCUGGGAUAGG [pnnbmullin]: label 0
AAGUCACAGGCAGGAUAUGCUUAGUAUUAAGGCCAUAUAUACGUAUAGAGUGAUGUUUUGUACCAGGCAGAAGGGCUACAUCCGU [FMN B Excl V4 (+U)]: label 1
CCAUCGCUAUUCGAUACCAGUCAUAAAAUCUUUGGUUUAAUAAAGGAGUGAUGUUCCCAAGACCCUUGGCAGCGAAUAGUGAUGG [Theophylline B K4 8]: label 0
AGAACUGUCUUGGAUACCAGUGAUGUUGGUAUCGAUGUGUGAGUGCAAAGCGUCCCACAUUGCCCUUGGCAGCUAAGACUGUUCA [Omei KL Theo B Exc A v3]: label 0
AGGUCCGAGCCUGUAAAGGCUCGGACCUGUUAGGAUAUGACGUUAUUCAGAAGGGAUGGGUGGAGUGAUGUUCCACCCGCAAGGG [#2 Same State - FMN A Attempt #5 (HarryS)]: label 0

###

Tested on: MS2 coat protein
Test: apparent KD of MS2 coat protein; designed switch direction (-1 OFF switch, 1 ON switch): -1; higher = weaker reporter binding
Details: input ligand: FMN 200 uM
quantity.name: apparent KD of MS2 coat protein (nM)

ACAUGAGGAUCACCCAUGUGACAAUAAUGGCUGAUACAGAGACAGGAUAUAGGUGCAUAUCUAACCUAGAAGGGUCAUGACUGG [Deportation 72 - Jieux - Exclusion NG 3] (Eterna round: R96, puzzle: Exclusion NG 3): 29.1
ACACAGCAAGGAUAUACAUGAGGAUCACCCAUGUGGUGGCAGUUACGGUAGGACUAGUGUAGAAGGUGCAGUGG [EX3 #30] (Eterna round: R97, puzzle: Exclusion 3): 487
GUAUAGCGAGGAUAUACAUGAGGAUCACCCAUGUGAUCCUUAGGCUGUACAAGCCAAUGUAGAAGGCGCAAAUU [jl-ex3.4.59 ViennaUCT mod] (Eterna round: R97, puzzle: Exclusion 3): 75.7
AGCUAGUCAGGAUAUUCUAAAAAUUACAUGAGGAUCACCCAUGUGAAUGGACAAGGGUGUGAAGAAGGGACUAGCG [Omei Ex5 A11] (Eterna round: R97, puzzle: Exclusion 5): 214
GUUUUGGGAGGAUAUAUGUGGAUAAUUUUUAUAUGAAAAUUACAUGAGGAUCACCCAUGUAGAAGGUCUAGAGC [-17.2, -15.1 kcal, 32% A] (Eterna round: R97, puzzle: Exclusion 2): 473
CCCAGUUAGAGAGGAUAUCUUACAUGAGGAUCACCCAUGUAAUAAAUGAGGAUUUCGGGUGUCUAAGAGAAGGCUCGGAUAGGC [Ostracism 29 - Jieux - Exclusion NG 2] (Eterna round: R96, puzzle: Exclusion NG 2): 37.9
GUUUAAUUAGGAUAUGCAAGCGGUGUUAGAAAAGUAUCCAAACAUGAGGAUCACCCAUGUAGAAGGAGUUGUUG [Eternabot (L2) Solution 59] (Eterna round: R97, puzzle: Exclusion 2): 28.5

###

System: MS2 coat protein
Experiment: apparent KD of MS2 coat protein; designed switch direction (-1 OFF switch, 1 ON switch): 1; higher = weaker reporter binding
Conditions: input ligand: none
Recorded apparent KD of MS2 coat protein for the following sequences
quantity.name: apparent KD of MS2 coat protein (nM)

GCCGCGUUUCGCGCCUACAUGAGGAUCACCCAUGUUUGUAGGCAGGAUAUCGUCCGCUUUGCGGGCGAGAAGGGCUGUUGUGGC [salish99_SSNG3_R04_021] (Eterna round: R96, puzzle: Same State NG 3): 54.8
AAGAAAGACGCAGGAUAUCAGCGCAAAACACGCUGAGAAGGGUGAGACAUGAGGAUCACCCAUGUAACACGGCAAAACGCCGUG [Atinanor] (Eterna round: R96, puzzle: Same State NG 1): 1310
GCACCUCGAUGAGGAUAUACAAGCGGAGAUUACAUGAGGAUCACCCAUGUGUGUCGCUUUCGAUGGUAGAAGGCAUACGAGGCA [Eternabot solution 14] (Eterna round: R96, puzzle: Same State NG 2): 59.2

###

Tested on: K4 kissing-loop RNA reporter;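 note: bound reporter read as fluorescence of individual clusters on recovered sequencing chips by microscopy, with normalized cluster intensities fitted with a binding model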
Assay: apparent KD of K4 kissing-loop reporter; higher = weaker reporter binding
Conditions: Eterna round: R107; input ligand: arginine 13.2 mM
quantity.name: apparent KD of K4 kissing-loop reporter (nM)

GGAUCCACCAGUGAUGUUGGAGAAAACUUCAAGGAUAUGACGAAAGUCAGAAGGUGGUAGACUGGUCAAAGUCCGGUCGGAUCCA [FmnA10 U29+U66]: 120
UUUGGUUUCUCGGCCGCCACUCGUUGGUUAUGGGCUUCAGGGAUAUAGUGAUGUUAUGUAUAGAAGAGGACCGGGAGAAGGAAGG [ExTryptoB.Dq]: 245
GCUAUGGUAGGAAGGAGCGCGGACGAAAUAUAUCGAGUGAUGUUCGAAUAAUUAAAUAAAACGCAGGUAGGUCGCCUACUAUAGC [Arginine B K4 25]: 114
AGGUCACAACUACAGUGAUGUUGUGGAGAGCAGGAUAUGCAGAAAUGCAGAAGGGCUCGCUCUCUAGUGACCGAUCAAAAGAUCA [Omei KL FMN A SS A v9]: 311
ACGGAGUGAUGUUCCGGCCUCCCAGCAGAUACCAGCAGUCGCGAUUGCCCUUGGCAGCUGUCCGCGGCAUCCACUUGUAGCGGUA [theeternabot_exclusion_KL_Theo_A_12]: 173
AUUAAUUUCAGAGGAUAUCGUAUUUAUAUUAUAUCUUUCCAUAUUUGCAGUGAUGUUGCAUUAAUUCGAGAAGGCUGAUUUAUAA [JR_Nu_ExcFMNB_Sub024]: 91
AAUAAAAUCACGGCCGCCACUGGUACUAGUAUUAGCAGUGAUGUUGCUAUGUAUAAUUUAUUAAAUAGGACCGGGUGAAUAUUUA [#27 K4 Tryptophan B Exclusion]: 281
UGACUGGACUGAAGGAGCGCUGAACUCCUAGUGAUGUUAGGAAAACGAGACAAAGUCUCGAAGCAGGUAGGUCGCAGUCUAGUCU: 101
GUGACCUACUCAGGAUAUCCGCAGUGAUGUUGCGGUUGGCCUGAGCGACAUGAAAAUCUUACUACAGGAGAAGGGAGAGGGUUAC [Leanteti]: 92.7
GGAGGAGAAUAUGAUACCAGCAGAGAGAGAGAGGAAGUAUAGUGAUGUUAUAUGAGAGAAUGCCCUUGGCAGCAUAAGAAGAAGG [SSTheophylB.A]: 105
CUCGUGGGUUUGAGAGGGCUUGUGGGAAGAUAGGAUAUCUAGGGAGGGAGAAGGAUCUAUAGAAUAUAGUGAUGUUAUAUAUGGG [#05 K4 FMN A Same State]: 131
UUGGAAAUCAGAAGGAGCGUCUAAAAUGAAGGAACCAGUGAUGUUGGUUUUAUUUAAUGAAGACAGGUAGGUCGCUGAAUUUUUA [Same State Arginie B GF 18]: 101

###

As shown below, each of these sequences has a reported apparent KD of MS2 coat protein value.
Tested on: MS2 coat protein
Assay: apparent KD of MS2 coat protein, switch ON state; designed switch direction (-1 OFF switch, 1 ON switch): 1; higher = weaker reporter binding
Settings: FMN input: 0 or 200 uM; Eterna round: R93 (includes R88 designs)
quantity.name: apparent KD of MS2 coat protein

AGCACGCGAUUGGAGGAUAUGUUGUUUGCAACAUGAGGAUCACCCAUGUCUGAGGCUGAAAAGCAGCAGAAGGCCGAUACAACCA [SS2-1.1]: 30.6 nM
GAAAAACAUGAGGAUCACCCAUGUGAGAAUAUGGGAGGAUAUUCAAAGACGAGAGUCAAAGAAGAAGGCCUAAAAG [Mat - Same State 1 - Eli mod - 38]: 29.3 nM
GGGUAAGAGAGAGAGGAUAUCCAAAGGAAAACAUGAGGAUCACCCAUGUAGAAGGUAGGAAAUUGGGAGAAGGCUCAAGAGAGAG [salish99-ss2-136]: 29.8 nM

###

The reader will find reported apparent KD of MS2 coat protein values listed item by item below.
Test system: MS2 coat protein
Assay: apparent KD of MS2 coat protein; designed switch direction (-1 OFF switch, 1 ON switch): -1; higher = weaker reporter binding
Conditions: Eterna round: R95; input ligand: FMN 200 uM
quantity.name: apparent KD of MS2 coat protein (nM)

AGUACUAACACGCGAGUGUUAGUACAAUAAGCUUGUGAAACAUGAGGAUCACCCAUGUCCUCAUAAGCUCGUCUUAU [salish99_TOv2_r3_059] (puzzle: Sensor v3, turn-off variant 2): 16.7
AAACUCCCAACCACCGGGAACAUGAGGAUCACCCAUGUGGCGUGACUCAUACGGGCUUUUUGUUCGUUUUAUUCACG [Soesesqu] (puzzle: Sensor v3, turn-off variant 1): 69
UGGUAACAUGAGGAUCACCCAUGUCAGGAUAUCAGUAAGAAUAGAUUAGAUUAGAAGAUGAGAAGGGACUAUAU [Excluse me! 5 - Jieux - Exclusion 1] (puzzle: Exclusion 1): 27.6
AAUACAAGUAAGAUCCUAAACAUGAGGAUCACCCAUGUGCUCGUCUUAUAAAGUACUAUCACGAAAGUGAUAGUACA [Sensor 3, v1 - 66] (puzzle: Sensor v3, turn-off variant 1): 48.7
ACCUCACAUGAGGAUCACCCAUGUCAGGAUAUGUACCUAGCCAAAACAAAGGCCAGAAGCAGAAGGGACUGCGG [Ralerezara] (puzzle: Exclusion 1): 24.1
UUUAAAACAUAGGAUAUCGAAAAUAUCAUUUAACGAGAAGGAUGAACAUGAGGAUCACCCAUGUGGUAUCAUGG [Mat - Exclusion 6 - JL Mod - D16] (puzzle: Exclusion 6): 320
AGUAACUAUCACGAAAGUGAUAGUUACAACAAGUGAUAAACAUGAGGAUCACCCAUGUCCUCAUUUGUUCGUCUUAU [Sensor 3 - 14] (puzzle: Sensor v3, turn-off variant 2): 240
AGUAGAUCUACGCUUGCGUGGAUCUGCAAUGCAAGUGUAACAUGAGGAUCACCCAUGUCCUCAUUUGCUCGUCUUAU [JL turnoff v2 99.03] (puzzle: Sensor v3, turn-off variant 2): 46.8
GGUUGGCGAGGAUAUACAUGAGGAUCACCCAUGUGAGAAAGAAAAGUGAGGAAGAAAAGUAGAAGGCGCUGACG [Mat - Exclusion 3 - Mod of Salish D2] (puzzle: Exclusion 3): 583
AAAAUGUCAGGAUAUGUGAAAGAAAAGAAAAGAAAAGAAAAACAGAAGGGACAUGAGGAUCACCCAUGUAAGAA [Exclusion 4 #3] (puzzle: Exclusion 4): 21.6
AGUAGAUCUACGCUUGCGUGGAUCUGCUAUGCAGGUGUUACAUGAGGAUCACCCAUGUCCUCGUUUGCUCGUCUUAU [JL turnoff v2 99.13] (puzzle: Sensor v3, turn-off variant 2): 333
